- SYSTEM: T1, Recombinant murine glypican-3 (aa 25-557), R&D Systems (murine, UniProt Q8CFZ4 25-557)
- T1 construct: also called muGPC3; Mu GPC3-His
- T1 sequence (Q8CFZ4 25-557 limits assumed, form in doubt): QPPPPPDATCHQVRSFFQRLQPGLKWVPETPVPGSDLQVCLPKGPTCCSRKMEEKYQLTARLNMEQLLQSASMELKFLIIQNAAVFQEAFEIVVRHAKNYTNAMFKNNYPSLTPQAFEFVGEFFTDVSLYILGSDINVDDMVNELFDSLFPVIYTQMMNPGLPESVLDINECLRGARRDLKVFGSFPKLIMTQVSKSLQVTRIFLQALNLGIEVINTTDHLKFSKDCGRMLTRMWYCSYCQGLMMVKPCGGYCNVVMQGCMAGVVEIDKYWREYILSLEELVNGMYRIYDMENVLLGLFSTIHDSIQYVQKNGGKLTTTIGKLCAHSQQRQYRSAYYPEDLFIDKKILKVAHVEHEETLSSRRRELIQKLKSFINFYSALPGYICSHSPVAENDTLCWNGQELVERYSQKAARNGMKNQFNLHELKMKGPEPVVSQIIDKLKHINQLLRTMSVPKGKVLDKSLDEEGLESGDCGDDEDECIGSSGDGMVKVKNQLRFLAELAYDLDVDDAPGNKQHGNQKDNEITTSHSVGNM
- TEST_NAME: SPR, Biacore T100, GPC3-His immobilised, 1:1 fit
Reported koff values for a set of binders
Give just the number in s⁻¹; leave the unit off.

{"columns": ["BINDER", "koff, s⁻¹"],
 "data": [
  ["ADX_6077_F02 DG→SG mutant, alkylated (designed binder, C-terminal cysteine alkylated, also called P1-055668) VSDVPRDLEVVAATPTSLLISWSDDYHAHRYYRITYGETGGNSPVQEFTVPGEHVTATISGLKPGVDYTITVYAVTYSGEKAATDWSISINYRTPC", 0.002]
]}

Attention now turns to another entry.
Ask: Item under review: ADX_6077_F02 DG→DL mutant, alkylated (designed binder, C-terminal cysteine alkylated, also called P1-055671) GVSDVPRDLEVVAATPTSLLISWSDDYHAHRYYRITYGETGGNSPVQEFTVPGEHVTATISGLKPGVDYTITVYAVTYDLEKAATDWSISINYRTPC . Reported koff?
Result: 0.0015
